Target: DHODH (Homo sapiens (Human), UniProt Q02127)
Sequence (Q02127 whole entry): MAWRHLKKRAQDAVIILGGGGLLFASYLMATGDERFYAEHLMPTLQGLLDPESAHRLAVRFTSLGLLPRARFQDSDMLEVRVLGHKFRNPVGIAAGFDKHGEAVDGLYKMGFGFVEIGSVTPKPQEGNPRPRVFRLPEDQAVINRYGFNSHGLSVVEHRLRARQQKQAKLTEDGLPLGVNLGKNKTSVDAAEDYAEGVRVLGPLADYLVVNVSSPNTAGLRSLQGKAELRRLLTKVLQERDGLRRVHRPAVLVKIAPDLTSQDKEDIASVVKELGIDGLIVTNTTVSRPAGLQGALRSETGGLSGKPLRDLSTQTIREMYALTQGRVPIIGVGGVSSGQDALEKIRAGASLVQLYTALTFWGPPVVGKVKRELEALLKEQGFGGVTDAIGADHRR
Assay: DHODH activity assay (coupled enzyme assay, DCIP reduction, absorbance at 610 nm)
Format: biochemical
Conditions: compound at 10 uM; read-out: inh @ 10 uM hDHODH (%)
Label rule, in plain words: inhibition at 10 µM of 70% and up is 1 (yes), under 70% is 0 (no).

Does the compound O=C(O)c1cccc2[nH]c(-c3ccc(-c4ccccc4O)cc3)nc12 have recorded inhibition at 10 µM that is 70% or more?
1 (yes)

Does the compound O=C(O)c1cccc2nc(-c3ccc(-n4ccccc4=O)cc3)[nH]c12 have recorded inhibition at 10 µM that is 70% or more?
0 (no)

Does the compound Cc1cc(C(=O)O)c2nc(-c3c(F)c(F)c(-c4ccccc4)c(F)c3F)n(C)c2c1 have recorded inhibition at 10 µM that is 70% or more?
1 (yes)

Does the compound Cc1cc(C(=O)O)c2nc(-c3ccc(-c4ccc(S(N)(=O)=O)cc4)cc3)[nH]c2c1 have recorded inhibition at 10 µM that is 70% or more?
0 (no)

Does the compound Cc1cc(C(=O)O)c2nc(-c3ccc(-c4ccc(Oc5ccccc5C#N)cc4)cc3)[nH]c2c1 have recorded inhibition at 10 µM that is 70% or more?
1 (yes)

Does the compound Cn1c(-c2ccc(-c3ccccc3)cc2)nc2cccc(C(=O)O)c21 have recorded inhibition at 10 µM that is 70% or more?
1 (yes)

Does the compound O=C(O)c1cccc2[nH]c(-c3ccc(-c4cccc(F)c4)cc3)nc12 have recorded inhibition at 10 µM that is 70% or more?
0 (no)

Does the compound O=C(O)c1cccc2nc(-c3ccc(-c4ccccn4)cc3)[nH]c12 have recorded inhibition at 10 µM that is 70% or more?
0 (no)
